molecular target: Ataxin-2 (Homo sapiens); test: qHTS for Inhibitors of ATXN expression.; type: functional
Hit rate of the full screen: of about 400,000 compounds, about 2,100 (0.53%) were called active. About 14% were inconclusive and are not listed. Many of the other results were omitted from the sample, so actives are more common in it than they were.
READOUT_NAME: Potency

- COMPOUND: "CCCc1ccc(C2C3=C(CC(C)(C)CC3=O)N=C3C2=C(O)c2ccccc23)cc1 (centres undefined)"
  EXPERIMENTAL_RESULT: "20 µM (active)"
- COMPOUND: "CC(=O)NN1C(=O)c2ccc3c4c(ccc(c24)C1=O)C(=O)N(NC(C)=O)C3=O"
  EXPERIMENTAL_RESULT: "25.1 µM (active)"
- COMPOUND: "Oc1nccc(SCc2ccc(Cl)cc2Cl)n1"
  EXPERIMENTAL_RESULT: "inactive"
- COMPOUND: "CCOc1ccc2c(c1)C(N(CCN1CCOCC1)C(=O)Nc1ccccc1)CC(C)(C)O2 (centres undefined)"
  EXPERIMENTAL_RESULT: "inactive"
- COMPOUND: "CCOc1ccc(C(=O)COC(=O)Cn2cnc3c2c(=O)n(C)c(=O)n3C)cc1"
  EXPERIMENTAL_RESULT: "inactive"
- COMPOUND: "CCc1ccc(N(C(=O)c2snc(C(N)=O)c2N)C(C(=O)NC2CCCC2)c2ccncc2)cc1 (centres undefined)"
  EXPERIMENTAL_RESULT: "inactive"
- COMPOUND: "CC(CCc1ccccc1)NCC(O)c1cccc([N+](=O)[O-])c1 (centres undefined)"
  EXPERIMENTAL_RESULT: "inactive"
- COMPOUND: "Cc1cc(C)c2cc(C#N)c(SCC(=O)Nc3cc(C)on3)nc2c1"
  EXPERIMENTAL_RESULT: "inactive"
- COMPOUND: "COc1ccc(C(C(=O)NC2CCCCC2)N(C(=O)CCl)c2ccc(C)cc2)cc1 (centres undefined)"
  EXPERIMENTAL_RESULT: "7.08 µM (active)"
- COMPOUND: "CC(=O)Nc1ccc(N2C(=O)c3cccc4c(O)ccc(c34)C2=O)cc1"
  EXPERIMENTAL_RESULT: "inactive"

Recall the recorded Potency for O=C(NC1CCCC1)C(c1ccc(Cl)cc1)N(Cc1ccc(F)cc1)C(=O)CCl (centres undefined) with Ataxin-2 (Homo sapiens) and state it.
39.8 µM (active)

Recall the recorded Potency for CC(NC(=O)c1cc2c(=O)n3ccccc3nc2n(C(C)C)c1=N)c1ccccc1 (centres undefined) with Ataxin-2 (Homo sapiens) and state it.
inactive

Recall the recorded Potency for O=C1C2CC(O)CN2C(=S)N1Cc1ccccc1 (centres undefined) with Ataxin-2 (Homo sapiens) and state it.
inactive

Recall the recorded Potency for CCCO/C(O)=C1\C(C)=NC2=C(C(=O)CC(C)(C)C2)C1c1cccnc1 (centres undefined) with Ataxin-2 (Homo sapiens) and state it.
inactive

Recall the recorded Potency for `Cc1cc2c(cc1C)N(C(=O)CCl)CCN2C(=O)CCl` with Ataxin-2 (Homo sapiens) and state it.
35.5 µM (active)

---

biological target: Ataxin-2 (Homo sapiens); experiment: qHTS for Inhibitors of ATXN expression.; type: functional
Screen size: about 400,000 compounds; about 2,100 (0.53%) were called active. Roughly 14% stayed inconclusive and do not appear here. The rule behind the calls is not given here. For the sample, actives were picked, then their nearest neighbours and some compounds at random.
Entry note: the call must match one of T = active, F = inactive

- COMPOUND: "CC(=O)c1cccc(Nc2nc(-c3ccccc3)nc3ccccc23)c1"
  CATEGORY: "F"
- COMPOUND: "CC/N=c1\\scc(-c2ccc(F)cc2)n1/N=C/c1ccccn1"
  CATEGORY: "F"
- COMPOUND: "CCOC(=O)C1=C(C)N=c2s/c(=C/c3ccc(OCC(=O)O)cc3)c(=O)n2C1c1ccc(OC)cc1OC (configuration not stated)"
  CATEGORY: "F"
- COMPOUND: "N#C/C(=C\\c1ccccc1C(=O)O)c1nc2ccccc2[nH]1"
  CATEGORY: "F"
- COMPOUND: "N#C/C(=C(/O)C(Cl)(Cl)Cl)c1nc2ccccc2[nH]1"
  CATEGORY: "F"
- COMPOUND: "N#C/C(=C(/O)COC(=O)COc1cccc(Br)c1)c1nc2ccccc2[nH]1"
  CATEGORY: "T"

Alright, here's another compound for you.
Recorded call for `COCCCn1c(=N)c(C(=O)NCc2cccnc2)cc2c(=O)n3cc(C)ccc3nc21` ?
F

---

biological target: Ataxin-2 (Homo sapiens) (UniProt Q99700); test: qHTS for Inhibitors of ATXN expression.; type: functional
Sequence (Q99700 whole entry): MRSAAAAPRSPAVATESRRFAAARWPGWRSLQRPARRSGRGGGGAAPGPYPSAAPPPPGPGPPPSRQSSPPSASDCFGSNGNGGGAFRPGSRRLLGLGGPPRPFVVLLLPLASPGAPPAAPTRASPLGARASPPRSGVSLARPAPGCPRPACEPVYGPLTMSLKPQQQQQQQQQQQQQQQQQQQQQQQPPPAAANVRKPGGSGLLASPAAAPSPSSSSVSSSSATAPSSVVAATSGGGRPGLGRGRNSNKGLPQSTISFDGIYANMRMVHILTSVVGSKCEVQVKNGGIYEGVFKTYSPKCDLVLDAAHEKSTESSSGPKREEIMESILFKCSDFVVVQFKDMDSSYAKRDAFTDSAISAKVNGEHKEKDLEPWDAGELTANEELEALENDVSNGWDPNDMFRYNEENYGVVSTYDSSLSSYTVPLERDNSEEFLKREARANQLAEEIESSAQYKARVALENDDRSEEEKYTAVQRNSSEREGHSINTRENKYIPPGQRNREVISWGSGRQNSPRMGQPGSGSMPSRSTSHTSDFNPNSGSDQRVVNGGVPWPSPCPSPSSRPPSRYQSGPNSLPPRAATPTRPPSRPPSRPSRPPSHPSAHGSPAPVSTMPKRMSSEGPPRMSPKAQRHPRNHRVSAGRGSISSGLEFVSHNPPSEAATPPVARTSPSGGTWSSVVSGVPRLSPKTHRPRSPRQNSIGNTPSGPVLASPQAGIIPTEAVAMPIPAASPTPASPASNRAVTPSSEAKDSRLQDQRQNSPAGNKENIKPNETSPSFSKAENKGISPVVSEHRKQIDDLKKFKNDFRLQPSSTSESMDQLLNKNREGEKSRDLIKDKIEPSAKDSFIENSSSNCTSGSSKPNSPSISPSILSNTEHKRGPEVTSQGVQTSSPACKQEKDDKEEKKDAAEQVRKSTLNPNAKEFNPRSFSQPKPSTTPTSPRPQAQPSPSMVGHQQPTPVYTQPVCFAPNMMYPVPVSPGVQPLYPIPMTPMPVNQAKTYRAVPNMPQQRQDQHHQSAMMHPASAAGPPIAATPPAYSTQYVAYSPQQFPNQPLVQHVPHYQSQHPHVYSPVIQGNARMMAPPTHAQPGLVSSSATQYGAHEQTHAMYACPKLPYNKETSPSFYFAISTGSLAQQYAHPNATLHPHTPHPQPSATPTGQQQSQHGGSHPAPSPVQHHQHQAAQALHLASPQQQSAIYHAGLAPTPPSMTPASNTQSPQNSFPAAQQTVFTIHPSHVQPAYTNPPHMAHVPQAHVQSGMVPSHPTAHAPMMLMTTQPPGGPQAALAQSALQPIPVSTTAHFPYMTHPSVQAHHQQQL
In all, about 400,000 compounds went through this assay and about 2,100 (0.53%) were called active. Another 14% or so got no clear call; they are omitted. This excerpt belongs to a sample that is enriched for actives.
READOUT_NAME: Potency

Please review the following examples before continuing.
- COMPOUND: "Cc1cccc2c(=O)n(C(=O)c3ccccc3)c(N)nc12"
  READOUT_NAME: "Potency"
  EXPERIMENTAL_RESULT: "inactive"
- COMPOUND: "O=C(CCS(=O)(=O)c1ccc(F)cc1)Nc1nc(-c2ccncc2)cs1"
  READOUT_NAME: "Potency"
  EXPERIMENTAL_RESULT: "39.8 µM (active)"
- COMPOUND: "Cc1cccc(N2C(=O)c3cccc4c(N(C)CCO)ccc(c34)C2=O)c1"
  READOUT_NAME: "Potency"
  EXPERIMENTAL_RESULT: "inactive"
- COMPOUND: "CCCCn1c(CNC(=O)C23CC4CC(CC(C4)C2)C3)nnc1SCC(=O)Nc1ccc(C)cc1"
  READOUT_NAME: "Potency"
  EXPERIMENTAL_RESULT: "35.5 µM (active)"
- COMPOUND: "C=CC[C@H](CC(=O)N(CCO)Cc1ccccc1)C(=O)N[C@H](COC(=O)[C@@H](CC=C)CC(=O)OC(C)(C)C)c1ccccc1"
  READOUT_NAME: "Potency"
  EXPERIMENTAL_RESULT: "35.5 µM (active)"

What value of measured Potency is listed for `Cc1ccc(C(C)C)c(OCC(=O)Nc2ccc3c(c2)nc(CCN2CCCCC2)n3C)c1` ?
39.8 µM (active)

---

target: Ataxin-2 (Homo sapiens); test: qHTS for Inhibitors of ATXN expression.; type: functional
Hit rate of the full screen: of about 400,000 compounds, about 2,100 (0.53%) were called active. About 14% were inconclusive and are not listed. How the calls were made is not given here. This excerpt belongs to a sample that is enriched for actives.
Entry note: the call must match one of active, inactive

- COMPOUND: "CC(C)C(C)NC(=O)CSc1nnc(-c2c[nH]c3ccccc23)o1 (centres undefined)"
  CATEGORY: "inactive"
- COMPOUND: "CC1CCC2C(=O)N(c3ccc(C(=O)Oc4cccc5cccnc45)cc3)C(=O)C2C1 (centres undefined)"
  CATEGORY: "inactive"
- COMPOUND: "COc1ccc(-c2nc3c(-c4ccc(Cl)cc4)cnn3cc2C)cc1F"
  CATEGORY: "inactive"
- COMPOUND: "C=CCNC(=S)Nc1cccc(NC(=S)NCC=C)c1"
  CATEGORY: "inactive"
- COMPOUND: "COc1cc(/C=C2\\C(=N)N3N=C(S(C)(=O)=O)SC3=NC2=O)ccc1OCCOc1ccccc1C"
  CATEGORY: "inactive"

Recorded call for COc1ccc(Cc2nnc(NC(=O)C3CC(=O)N(c4ccc(OC)cc4)C3)s2)cc1 (centres undefined) ?
inactive

Recorded call for `O=S(=O)(Nc1ccc(C(O)(C(F)(F)F)C(F)(F)F)cc1)c1ccc(Cl)c2nonc12` ?
active

Recorded call for `COC(=O)c1sc2nc3c(cc2c1N)CCCC3` ?
inactive

Recorded call for `Cc1ccc(CSc2nnc(SCC(=O)N/N=C/c3c[nH]c4ccccc34)s2)cc1` ?
active

---

target: Ataxin-2 (Homo sapiens) (UniProt Q99700); test: qHTS for Inhibitors of ATXN expression.; assay type: functional
In all, about 400,000 compounds went through this assay and about 2,100 (0.53%) were called active. Another 14% or so got no clear call; they are omitted. How the calls were made is not given here. The full list was thinned out, with actives kept by preference.
Entry note: the call must match one of active, inactive

Illustrative cases are given below, each with its answer.
- COMPOUND: "CCc1ccc(-c2cn3nc(C)c(C)nc3n2)cc1"
  CATEGORY: "inactive"
- COMPOUND: "O=C(NCc1cccc(C(F)(F)F)c1)c1cccc2c1C(=O)c1ccc(N3CCC(Cc4ccccc4)CC3)cc1S2(=O)=O"
  CATEGORY: "inactive"
- COMPOUND: "CC(C)OC(=O)c1ccc(NCc2cc(O)ccc2O)cc1"
  CATEGORY: "active"
- COMPOUND: "C=CCc1c(O)c(CC)cc2c(C)cc(=O)oc12"
  CATEGORY: "inactive"
- COMPOUND: "COC(=O)c1cc(CN2CCN(c3ccccc3)CC2)ccc1O"
  CATEGORY: "inactive"
- COMPOUND: "CN(/N=C/c1ccc(Br)o1)C1=NS(=O)(=O)c2ccccc21"
  CATEGORY: "inactive"
- COMPOUND: "O=C1C=CC(=O)C(CNc2ccc(C(=O)OCc3ccccc3)cc2)=C1"
  CATEGORY: "active"
- COMPOUND: "COc1ccc(C2CC(c3ccccc3Cl)=NN2c2ccc(S(N)(=O)=O)cc2)cc1 (stereo not given)"
  CATEGORY: "inactive"
- COMPOUND: "CC(C)OC(=O)c1ccc(NCc2cc(O)ccc2O)cc1Cl"
  CATEGORY: "active"

Alright, here's another compound for you.
Recorded call for CC1CCc2cc(F)ccc2N1C(=O)CSc1n[nH]c2c3cc(F)ccc3nc-2n1 (stereo not given) ?
active
